- System: HCC 2998
- EXPERIMENT_DESCRIPTION: NCI tumour cell line growth inhibition, 48 h
The source made the active and inactive calls. No stated cut-off is given here; in the data, active = GI50 up to about 1.1 µM and inactive = higher. Where a SMILES comes first, the peptide text is derived from it. The star is where a group is joined. Boc = CC(C)(C)OC(=O)*
QUANTITY_NAME: GI50

Take a look at these entries with their results.
O=c1c2cc(I)ccc2nc(Sc2ncccc2[N+](=O)[O-])n1Cc1ccccc1 | 26.7 µM (inactive)
CO[C@@H]1[C@H](OC(=O)NC(=O)CCl)CC[C@]2(CO2)[C@H]1[C@@]1(C)O[C@@H]1CC=C(C)C [O-CHLOROACETYLCARBAMOYLFUMAGILLOL] | 5.81 µM (inactive)
COc1ccc2c(c1)C=C(C(C)(C)C)NS2(=O)=O | > 100 µM (inactive)

Give the measured GI50 for COc1ccc2c(c1O)-c1cc(O)cc3c1[C@@H](C2)N(C)CC3 73.6 µM (inactive)

State its GI50 for this compound: COC(=O)C(Cc1c[nH]c2ccccc12)NC(=O)C(Cc1c[nH]c2ccccc12)NC(=O)C(Cc1c[nH]c2ccccc12)NC(=O)C(Cc1c[nH]c2ccccc12)NC(=O)C(Cc1c[nH]c2ccccc12)NC(=O)C(Cc1c[nH]c2ccccc12)NC(=O)C(Cc1c[nH]c2ccccc12)NC(=O)C(Cc1c[nH]c2ccccc12)NC(=O)OC(C)(C)C (configuration not stated) (Boc-WWWWWWWW-OMe; configuration not given here) > 100 µM (inactive)

Please give measured GI50 of the following entry: CC1=C(C(=O)Nc2ccccc2C)C(/C=C/c2ccccc2)C(C(=O)Nc2ccccc2C)=C(C)N1 > 100 µM (inactive)

Report GI50 for CCCc1c(C(=O)OCC)[nH]c(C(=O)CCC(=O)c2[nH]c(C(=O)OCC)c(CCC)c2C(=O)OCC)c1C(=O)OCC > 100 µM (inactive)

Report GI50 for O=S(=O)(NC(c1ccccc1)(c1cc2ccccc2[nH]1)c1cc2ccccc2n1S(=O)(=O)c1ccccc1)c1ccccc1 (configuration not stated) > 100 µM (inactive)

Look up and report measured GI50 for this entry: COc1ccc(-n2cnc3c(N)nc(N)nc32)cc1 64.4 µM (inactive)

Return value of GI50 for input O=C1CCC(=O)c2sccc2N1 , no commentary. > 100 µM (inactive)

Could you please provide reported GI50 for CC(C)(C)N1Cc2ccccc2/C(=C/Sc2ccccc2)C1=O ? Thanks! 18.2 µM (inactive)

Answer with the recorded GI50 for the compound listed here: NC(=O)NN=C1Cc2ccccc2C1 > 100 µM (inactive)

====

- Test system: MOLT-4
- EXPERIMENT_DESCRIPTION: NCI tumour cell line growth inhibition, 48 h
Calls of active or inactive are those of the source. No stated cut-off is given here; in the data, active = GI50 up to about 1.1 µM and inactive = higher.
Below, each of the compounds is paired with its reported GI50 value.

Previously resolved entries follow.
CSc1nc(NC2OC(CO)C(O)C(O)C2O)c(N)c(=O)[nH]1 (stereo not given) | > 100 µM (inactive)
CC(=O)Nc1cc2cc(NS(=O)(=O)c3ccc(Cl)c(Cl)c3)ccc2oc1=O | 27.4 µM (inactive)
N#Cc1ccc(/N=C(/NCC(=O)O)Nc2cccc3ccccc23)cc1 | > 10 µM (inactive)

Please report the measured GI50 for CC(C)(C)C(=O)CC(=O)C(F)(F)C(F)(F)C(F)(F)F 17.9 µM (inactive)

Look up and report measured GI50 for this entry: [N-]=[N+]=Nc1c(C=O)c(=O)n(-c2ccccc2)c2ccccc12 2.63 µM (inactive)

Consider the compound COC(=O)c1ccc(NCC2=CC(=O)C=CC2=O)cc1 and give its recorded GI50. 3.05 µM (inactive)

====

- Tested on: SNB-78
- EXPERIMENT_DESCRIPTION: NCI tumour cell line growth inhibition, 48 h
Calls of active or inactive are those of the source. No stated cut-off is given here; in the data, active = GI50 up to about 1.1 µM and inactive = higher.
Each entry below lists one item and its recorded GI50 value.

These solved cases illustrate the format of a correct answer.
NC1=NN(c2ccccc2)C(=O)C1/C(=N\NC(=O)c1cc2ccccc2cc1O)C(=O)Nc1ccc(Cl)c(Cl)c1 (stereo unspecified) | 23.8 µM (inactive)
O=C(/C=C\c1ccc(Cl)c(Cl)c1)c1ccc(Cl)cc1Cl | > 10 µM (inactive)
Cc1cc([N+](=O)[O-])c(C)c2c1[nH]c1ccc(/C(CCC3CCCC3)=N\N)cc12 | 36.5 µM (inactive)

// Input: CC1(C)COC(c2cccc3c2C(=O)c2cccc(Cl)c2-3)=N1 . Output its GI50 only. 97.1 µM (inactive)

Name the recorded GI50 of the molecule listed here: N#CC(C#N)C(c1ccccc1)c1ccccc1 > 100 µM (inactive)

Identify measured GI50 associated with CSc1nc(CO)c(CO)n1C > 100 µM (inactive)

====

- Test system: A549
- EXPERIMENT_DESCRIPTION: NCI tumour cell line growth inhibition, 48 h
The source made the active and inactive calls. No stated cut-off is given here; in the data, active = GI50 up to about 1.1 µM and inactive = higher.
QUANTITY_NAME: GI50

For orientation, consider the following solved cases.
COC(=O)Cc1c([C@H]2[C@H](CC(=O)OC)c3ccccc3N2C(C)=O)[nH]c2ccccc12 | 97.7 µM (inactive)
CCCCOc1ccc(S(=O)(=O)N/C(N)=N/c2ccc(Cl)cc2)cc1 | 19.5 µM (inactive)

Input Cc1ccc2[nH]c3[nH]c(=O)[nH]c(=O)c3c2c1 , output reported GI50. > 100 µM (inactive)

Annotate the compound C[C@@H]1S[C@H](c2c(F)cccc2Cl)n2c1nc1ccccc12 with its measured GI50. 17.1 µM (inactive)

Return GI50 (reported value) for this compound: COc1cccc(-c2nnc3c(-c4ccccc4)nc4ccccc4n23)c1 21.2 µM (inactive)

====

- System: RPMI-8226
- EXPERIMENT_DESCRIPTION: NCI tumour cell line growth inhibition, 48 h
The source made the active and inactive calls. Cut-off read from the data, not from the text of the source: active = GI50 up to about 1.1 µM and inactive = higher.
Your reply should match one of these outcome classes. active, inactive

Completed entries (count: 3):
CCN(CCCl)c1cc(CN(C)C)cc(NC(=O)c2ccc(C(=O)Nc3ccccc3)cc2)c1 | active
COc1ccc2nc3cc(Cl)ccc3c(NCCCNCCCNc3c4ccc(Cl)cc4nc4ccc(OC)cc34)c2c1 | active
C[C@]12CC[C@@H]3c4ccc(OCCN5CCCC5)cc4CC[C@H]3[C@@H]1CCC2=O | inactive

Record lookup: outcome of this test for CCOC(=O)Nc1cc2nnc(-c3ccccc3)nc2c(N)n1 ? inactive

Called result for CC1CC(c2cccc3c2OCO3)=Nc2ccccc2S1 (configuration not stated) inactive

Please share the test call associated with C=C1CC2OC2(C(=O)O[C@H]2CCC3[C@@H]4CCC5=CC(=O)CC[C@]5(C)C4CC[C@@]32C)C1=O (some centres not stated) . inactive

# fetch the recorded call for CNC(=O)SCC(N)C(=O)O (configuration not stated) here inactive

====

- Test system: SN12C
- EXPERIMENT_DESCRIPTION: NCI tumour cell line growth inhibition, 48 h
Structures can show the parent of a compound that is named as a salt. Activity calls are given as the source filed them. No stated cut-off is given here; in the data, active = GI50 up to about 1.1 µM and inactive = higher.
Please state which outcome applies, choosing from Yes = active, No = inactive

C[S+](C)C1(c2ccccc2)C(=O)c2ccccc2C1=O | No

In this assay, the call recorded for CC[C@@H]1C(=O)OC[C@@H]1Cc1cncn1C [PILOCARPINE HYDROCHLORIDE] was what? No

Given COc1ccc(C#Cn2nnc3ccccc32)cc1 , state the outcome it received in this test. No

====

A collection of compounds and their measured GI50
- Test system: OVCAR-3
- EXPERIMENT_DESCRIPTION: NCI tumour cell line growth inhibition, 48 h
The source made the active and inactive calls. No stated cut-off is given here; in the data, active = GI50 up to about 1.1 µM and inactive = higher.

CC(=O)c1cccc(N2COC(C)(C)c3nc4ccccc4n3C2)c1 | > 100 µM (inactive)
CCOc1cn(C2CC(O)C(CO)O2)c(=O)[nH]c1=O (centres undefined) | > 100 µM (inactive)
COc1ccc2c(c1O)-c1cc(O)cc3c1[C@@H](C2)N(C)CC3 | 55.8 µM (inactive)
CCCCCCc1cc2cc(-c3cn4ccccc4n3)c(=O)oc2cc1O | 4.38 µM (inactive)

Shifting focus to the compound that follows.
Report measured GI50 on OVCAR-3; entry: O=C(Nc1cccc2nsnc12)c1cc2c(cc1Cl)Sc1nccn1S2(=O)=O 1.68 µM (inactive)

====

- System: Malme-3M
- EXPERIMENT_DESCRIPTION: NCI tumour cell line growth inhibition, 48 h
The source made the active and inactive calls. Cut-off read from the data, not from the text of the source: active = GI50 up to about 1.1 µM and inactive = higher.
Can you answer with just one of these options? active, inactive

c1csc(-c2cscc2-c2ccsc2)c1 | inactive
O=c1[nH]c(=O)n(COCCO)c2ccsc12 | inactive
CCOC1=NC(C(F)(F)F)(C(F)(F)F)N=C(N2CCCCC2)O1 | inactive
CN1CCN(c2ccc3nc(C4=C(O)C(=O)c5c(nc(CO)n5C)C4=O)[nH]c3n2)CC1 | inactive
COc1ccccc1NS(=O)(=O)c1ccc2ncn(NS(=O)(=O)c3ccc(Cl)cc3)c(=O)c2c1 | inactive
C(/Cc1ccc2c(c1)OCO2)=N\N=C1NCCN1 | inactive

# lookup: test call for CN(C)Cc1cc(C(=O)/C=C/c2ccc(/C=C/C(=O)c3cc(CN(C)C)c(O)c(CN(C)C)c3)cc2)cc(CN(C)C)c1O inactive

Dear colleague, could you share the recorded outcome for Nc1ncnc2c1ncn2C1OC(CO)C2OC21 (stereo unspecified) when you have a moment? inactive

Hi, do you know how COc1ccc(C#Cn2nnc3ccccc32)cc1 came out in this test? inactive

Status in this test for COc1c2c(cc3nc4ccccc4nc13)CC[C@H](NC(C)=O)c1cc(=O)c(SC)ccc1-2 ? active

Check the results log: what was the call for COc1ccc(C2SCc3nc4ccccc4n32)cc1 (stereo unspecified) ? inactive

Each compound tested received a call. Report the one for COc1ccc(Nc2nc3cc(C(F)(F)F)ccc3nc2C(=O)O)cc1 . inactive

So what was the verdict on COc1c(C)c2c(c(C)c1Cl)Oc1c(C=O)c(O)c(Cl)c(C)c1C(=O)O2 in this test? inactive

Test call, this compound: CCCCOc1ccc(S(=O)(=O)N/C(N)=N/c2ccc(Cl)cc2)cc1 inactive

These measurements were taken from ChEMBL document CHEMBL1201862.
